Origin of the recorded values: paper PMC10610115

# Target Or Test System: JNK3 (c-Jun N-terminal kinase 3) (Homo sapiens, UniProt P53779)
# Sequence (P53779 whole entry): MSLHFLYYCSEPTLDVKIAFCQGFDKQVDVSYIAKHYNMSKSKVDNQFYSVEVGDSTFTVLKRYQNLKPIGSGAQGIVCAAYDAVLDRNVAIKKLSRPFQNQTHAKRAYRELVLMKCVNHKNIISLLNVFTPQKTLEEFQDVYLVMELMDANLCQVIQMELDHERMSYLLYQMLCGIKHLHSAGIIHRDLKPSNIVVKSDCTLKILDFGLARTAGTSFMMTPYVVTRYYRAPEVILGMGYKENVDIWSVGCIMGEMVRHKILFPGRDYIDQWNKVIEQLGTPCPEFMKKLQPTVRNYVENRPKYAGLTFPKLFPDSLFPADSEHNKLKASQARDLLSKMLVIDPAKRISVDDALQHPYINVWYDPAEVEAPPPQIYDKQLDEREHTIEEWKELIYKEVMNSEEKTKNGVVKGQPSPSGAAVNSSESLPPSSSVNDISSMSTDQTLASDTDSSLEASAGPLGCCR
pIC50: −log10 of the molar value.
Readout Name: pIC50

[
  {
    "Compound": "CCc1nc(-c2cccc(C)c2)c(-c2ccnc(NC(=O)c3ccccc3)c2)s1 [compound 6]",
    "Meas Value": 6.89
  }
]
